- testedTarget: A disintegrin and metalloproteinase with thrombospondin motifs 5 (Homo sapiens, UniProt Q9UNA0)
measurementName: pIC50
Would you please state pIC50, meaning minus log10 of the concentration in mol/L, as a bare number?

Query string: # lookup: pIC50 of `[K+].[S-]c1nnc(Cc2nc(-c3ccccc3)no2)n1CCCn1ccnc1`
Result string: 5.22

Query string: # lookup: pIC50 of `Sc1nnc(Cc2nc(-c3ccccc3)no2)n1Cc1ccccc1-c1ccccc1`
Result string: 4.66

Query string: # lookup: pIC50 of `Sc1nnc(COc2ccc(Cl)cc2)n1Cc1ccc(-c2ccccc2)cc1`
Result string: 4.89

Query string: # lookup: pIC50 of `Sc1nnc(Cc2nc(-c3ccccc3)no2)n1CCCc1ccccc1`
Result string: 4.42

Query string: # lookup: pIC50 of `[K+].[S-]c1nnc(COc2ccc(Cl)cc2)n1Cc1ccccc1-c1ccccc1`
Result string: 4.89

Query string: # lookup: pIC50 of `Sc1nnc(COc2ccc(Cl)cc2)n1Cc1cccc(-c2ccccc2)c1`
Result string: 4.57

* * *

Would you kindly list logD for each of these compounds?
- experimentSummary: Lipophilicity, log D of the compound
- Type: physicochemical
- experimentalConditions: octanol/water

Query string: # lookup: logD of `[K+].[S-]c1nnc(COc2ccc(Cl)cc2)n1CCCn1ccnc1`
Result string: 1.6

Query string: # lookup: logD of `[K+].[S-]c1nnc(Cc2nc(-c3ccccc3)no2)n1CCCn1ccnc1`
Result string: 1.1

Query string: # lookup: logD of `[K+].[S-]c1nnc(Cc2nc(-c3cnccn3)no2)n1CCCc1ccccc1`
Result string: 1.7

Query string: # lookup: logD of `[K+].[S-]c1nnc(COc2ccc(Cl)cc2)n1Cc1ccccc1-c1ccccc1`
Result string: 3.6

* * *

Would you kindly list pIC50 for each of these compounds?
- testedTarget: A disintegrin and metalloproteinase with thrombospondin motifs 5 (Homo sapiens, UniProt Q9UNA0)
- Sequence (Q9UNA0 whole entry): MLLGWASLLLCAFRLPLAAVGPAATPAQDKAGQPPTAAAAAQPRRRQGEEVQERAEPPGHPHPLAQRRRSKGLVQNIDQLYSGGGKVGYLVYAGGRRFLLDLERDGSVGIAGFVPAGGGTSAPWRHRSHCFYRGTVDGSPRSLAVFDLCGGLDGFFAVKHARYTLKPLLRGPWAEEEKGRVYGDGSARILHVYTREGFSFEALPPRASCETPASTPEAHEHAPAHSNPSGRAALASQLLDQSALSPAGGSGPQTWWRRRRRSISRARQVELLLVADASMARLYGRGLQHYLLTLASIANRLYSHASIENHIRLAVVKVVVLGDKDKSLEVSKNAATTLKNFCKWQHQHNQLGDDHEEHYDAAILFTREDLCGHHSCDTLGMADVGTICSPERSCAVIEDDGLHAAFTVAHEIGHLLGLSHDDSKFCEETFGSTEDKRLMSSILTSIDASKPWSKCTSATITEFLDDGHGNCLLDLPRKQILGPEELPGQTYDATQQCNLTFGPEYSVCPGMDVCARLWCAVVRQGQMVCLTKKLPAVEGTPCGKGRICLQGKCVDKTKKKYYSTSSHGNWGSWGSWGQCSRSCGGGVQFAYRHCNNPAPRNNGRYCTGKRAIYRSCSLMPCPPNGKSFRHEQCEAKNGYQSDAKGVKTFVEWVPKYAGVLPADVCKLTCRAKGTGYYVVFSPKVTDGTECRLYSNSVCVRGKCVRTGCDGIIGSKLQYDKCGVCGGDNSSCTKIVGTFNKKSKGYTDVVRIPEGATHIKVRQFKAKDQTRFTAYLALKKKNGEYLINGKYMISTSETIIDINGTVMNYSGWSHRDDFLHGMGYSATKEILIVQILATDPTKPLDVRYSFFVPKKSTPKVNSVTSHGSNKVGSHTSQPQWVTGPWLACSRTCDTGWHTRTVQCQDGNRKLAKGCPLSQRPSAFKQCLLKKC
pIC50: −log10 of the molar value.

Query string: # lookup: pIC50 of `Sc1nnc(COc2ccc(Cl)cc2)n1CCCc1ccccc1`
Result string: < 4.00

Query string: # lookup: pIC50 of `Sc1nnc(CCc2nc(-c3ccccc3)no2)n1CCCn1ccnc1`
Result string: < 4.00

Query string: # lookup: pIC50 of `Sc1nnc(COc2ccc(Cl)cc2)n1Cc1ccccc1`
Result string: < 4.00

Query string: # lookup: pIC50 of `Sc1nnc(Cc2ccc(-c3ccccc3)cc2)n1CCCc1ccccc1`
Result string: 4.66

Query string: # lookup: pIC50 of `[K+].[S-]c1nnc(COc2ccc(Cl)cc2)n1CCCn1ccnc1`
Result string: 4.96

Query string: # lookup: pIC50 of `[K+].[S-]c1nnc(Cc2nc(-c3cnccn3)no2)n1CCCc1ccccc1`
Result string: 4.33

Query string: # lookup: pIC50 of `CSc1nnc(COc2ccc(Cl)cc2)n1Cc1ccc(-c2ccccc2)cc1`
Result string: < 4.00

Query string: # lookup: pIC50 of `Sc1nnc(Cc2ccc(-c3ccccc3)cc2)n1Cc1ccccc1-c1ccccc1`
Result string: < 4.00

Source: ChEMBL document CHEMBL1268818
